# Test system: Yap1 mRNA
# ASSAY_PROCEDURE: Dose-dependent inhibition of human Yap1 in A-431 cells (Example 7, 10,000 cells per well, RTS36584)
# Format: cell-based
# CONDITION_PARAMETERS: Table 56, 15.6 nM, free uptake, A-431 cells 10,000 cells per well, 48 hours
Strand notation (5' to 3'): a small letter for the sugar, then the base; units joined by * are phosphorothioate-linked, units joined directly phosphodiester-linked; [ ] holds rarer units or linkages, { } end groups; capitals alone tell only the bases. k = constrained ethyl (cEt); [5mC] = 5-methylcytosine; d = 2'-deoxy (DNA)
ASSAY_READOUT: Yap1 mRNA, % UTC (% UTC)
Provide only the numeric value, understood in % UTC.

Would you mind telling me what Yap1 mRNA, % UTC value was observed for 715491 (kA*kA*k[5mC]*d[5mC]*dA*dA*d[5mC]*dT*dA*dT*dT*dA*d[5mC]*kT*kT*k[5mC]) [compound 715491] ?
92

Would you mind telling me what Yap1 mRNA, % UTC value was observed for 958371 (antisense kA*k[5mC]*k[5mC]*dA*dA*d[5mC]*dT*dA*dT*dT*dA*d[5mC]*dT*kT*k[5mC]*kA) [compound 958371] ?
89

Would you mind telling me what Yap1 mRNA, % UTC value was observed for 958721 (kG*kT*kA*dG*dT*dA*dT*dA*dA*dT*dG*dA*dG*kT*kT*kA; antisense) [compound 958721] ?
72

Would you mind telling me what Yap1 mRNA, % UTC value was observed for 958536 (kA*kG*kG*dG*dT*d[5mC]*dA*dA*dT*dT*dT*dT*d[5mC]*kA*kG*k[5mC]; antisense) [compound 958536] ?
94

Would you mind telling me what Yap1 mRNA, % UTC value was observed for 958736 (kG*kT*kG*dA*dT*dA*dT*dG*dG*dA*dT*dT*d[5mC]*kT*kG*kT; antisense) [compound 958736] ?
83

Would you mind telling me what Yap1 mRNA, % UTC value was observed for 958373 (antisense kA*kG*kG*dT*dG*d[5mC]*dT*dA*dG*d[5mC]*dT*dG*dG*kT*kG*k[5mC]) [compound 958373] ?
72

* * *

# Tested on: Yap1 mRNA
# ASSAY_PROCEDURE: Antisense inhibition of human Yap1 in A-431 cells by cEt gapmers, single dose (Example 3, RTS36584)
# Format: cell-based
# CONDITION_PARAMETERS: Table 13; A-431 cells, 5,000 cells per well, free uptake, 2,000 nM modified oligonucleotide, approx. 48 hours; RTS36584; normalized to RIBOGREEN; Yap1 mRNA relative to untreated control cells
# Experimental: Modified oligonucleotides were designed to target a Yap1 nucleic acid and were tested for their effect on Yap1 mRNA level in vitro. The modified oligonucleotides were tested in a series of experiments that had similar culture conditions. […] After a treatment period of approximately 48 hours, RNA was isolated from the cells and Yap1 mRNA levels were measured by quantitative real-time RTPCR. […] Yap1 mRNA levels were normalized to total RNA content, as measured by RIBOGREEN®. […]
Strand notation (5' to 3'): a small letter for the sugar, then the base; units joined by * are phosphorothioate-linked, units joined directly phosphodiester-linked; [ ] holds rarer units or linkages, { } end groups; capitals alone tell only the bases. k = constrained ethyl (cEt); [5mC] = 5-methylcytosine; d = 2'-deoxy (DNA)
Kindly state YAP1 (% UTC) for each of the entries shown.
Provide only the numeric value, understood in % UTC.

Item 958680 (kA*kT*kT*dA*dA*d[5mC]*dA*d[5mC]*d[5mC]*dT*dG*dA*dG*k[5mC]*kT*kG; antisense) [Compound 958680] with Yap1 mRNA - YAP1 (% UTC)?
50

Item 958510 (kT*kA*k[5mC]*d[5mC]*dA*d[5mC]*dA*d[5mC]*dT*dA*dT*dT*dA*kT*kA*kA; antisense) [Compound 958510] with Yap1 mRNA - YAP1 (% UTC)?
43

Item 958775 (antisense kG*kT*k[5mC]*dT*dA*dT*dA*d[5mC]*dG*dG*dG*dA*dG*kA*kT*kT) [Compound 958775] with Yap1 mRNA - YAP1 (% UTC)?
29

Item 958560 (kG*kG*kT*dG*d[5mC]*d[5mC]*dA*d[5mC]*dT*dT*dT*dA*dA*kT*kT*k[5mC]; antisense) [Compound 958560] with Yap1 mRNA - YAP1 (% UTC)?
22

Item 958505 (kG*kA*kT*dA*dA*dT*d[5mC]*dG*dA*dG*dA*dT*dT*kT*kA*kA; antisense) [Compound 958505] with Yap1 mRNA - YAP1 (% UTC)?
6

Item 958690 (antisense kT*kG*kG*dA*d[5mC]*dT*d[5mC]*dT*dT*dG*dA*dT*d[5mC]*kA*k[5mC]*kA) [Compound 958690] with Yap1 mRNA - YAP1 (% UTC)?
26

Item 715483 (antisense k[5mC]*kT*k[5mC]*dT*dT*dT*dG*dG*dA*dA*dA*d[5mC]*d[5mC]*kA*kT*kT) [Compound 715483] with Yap1 mRNA - YAP1 (% UTC)?
1

Item 958595 (k[5mC]*k[5mC]*kA*d[5mC]*dA*dT*d[5mC]*dA*dA*dG*dG*d[5mC]*dT*kA*kT*kG; antisense) [Compound 958595] with Yap1 mRNA - YAP1 (% UTC)?
8

Item 958675 (kT*k[5mC]*k[5mC]*d[5mC]*dT*dA*dT*d[5mC]*dA*dG*d[5mC]*dT*dG*kG*kG*k[5mC]; antisense) [Compound 958675] with Yap1 mRNA - YAP1 (% UTC)?
112

Item 958815 (kG*kG*kG*d[5mC]*dG*dA*dG*dG*dA*dG*dA*d[5mC]*dA*kG*kG*kT; antisense) [Compound 958815] with Yap1 mRNA - YAP1 (% UTC)?
16

Item 958645 (kG*k[5mC]*k[5mC]*d[5mC]*dA*dT*dA*dG*dT*dT*dG*dA*d[5mC]*kA*kG*kG; antisense) [Compound 958645] with Yap1 mRNA - YAP1 (% UTC)?
54

Item 958640 (antisense kT*kA*kG*dA*dT*dA*dA*d[5mC]*dT*dG*dT*d[5mC]*dT*k[5mC]*k[5mC]*k[5mC]) [Compound 958640] with Yap1 mRNA - YAP1 (% UTC)?
13

Item 958520 (k[5mC]*kT*kA*d[5mC]*d[5mC]*dG*dT*dA*dT*dG*d[5mC]*d[5mC]*d[5mC]*kA*kG*kA; antisense) [Compound 958520] with Yap1 mRNA - YAP1 (% UTC)?
27
